# test system: recombinant cynomolgus monkey CD3ε/δ heterodimer (cynomolgus monkey) (UniProt Q95LI5)
# Sequence (Q95LI5 22-117, stated change not applied, chain 1 of 2): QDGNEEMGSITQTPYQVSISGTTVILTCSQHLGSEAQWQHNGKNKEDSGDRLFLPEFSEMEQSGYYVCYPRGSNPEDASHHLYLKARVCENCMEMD
# Sequence (Q95LI8 22-105, stated change not applied, chain 2 of 2, further chain): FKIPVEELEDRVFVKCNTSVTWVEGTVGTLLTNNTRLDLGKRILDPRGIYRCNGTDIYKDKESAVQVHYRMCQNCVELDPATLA
# protocol text: ELISA, coated CD3ε/δ
Classify as follows. Reported Absorbance (450 nm) greater than or equal to 0.2: True. Reported Absorbance (450 nm) below: False.

Worked examples follow.
binder	group
B01 (antibody, human IgG1, lambda, L234A L235A, V domains shown) VH: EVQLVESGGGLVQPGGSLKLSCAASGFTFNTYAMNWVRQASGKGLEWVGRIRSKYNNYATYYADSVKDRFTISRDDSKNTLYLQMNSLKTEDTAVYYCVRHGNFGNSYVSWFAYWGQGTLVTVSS VL: QAVVTQEPSLTVSPGGTVTLTCRSSTGAVTTSNYANWFQQKPGQAPRTLIYGTNKRAPWTPARFSGSLLGGKAALTLSGAQPEDEAEYYCALWYSNLWVFGGGTKLTVLG	False
D14 (antibody, human IgG1, lambda, L234A L235A, V domains shown) VH: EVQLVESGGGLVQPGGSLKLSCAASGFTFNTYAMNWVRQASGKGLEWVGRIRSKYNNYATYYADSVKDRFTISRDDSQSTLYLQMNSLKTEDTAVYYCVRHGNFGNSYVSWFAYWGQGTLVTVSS VL: QAVVTQEPSLTVSPGGTVTLTCRSSTGAVTTSNYANWVQQKPGQAPRGLIYGTNKRAPWTPARFSGSLLGDKAALTLSGAQPEDEAEYYCALWYSNLWVFGGGTKLTVLG	False
F08 (antibody, human IgG1, lambda, L234A L235A, V domains shown) VH: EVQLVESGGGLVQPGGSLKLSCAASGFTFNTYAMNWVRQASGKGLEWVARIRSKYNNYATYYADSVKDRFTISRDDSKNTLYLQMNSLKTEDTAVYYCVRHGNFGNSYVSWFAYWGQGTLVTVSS VL: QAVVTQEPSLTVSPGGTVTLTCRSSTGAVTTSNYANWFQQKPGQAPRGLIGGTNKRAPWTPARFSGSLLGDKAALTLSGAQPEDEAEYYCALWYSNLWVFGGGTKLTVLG	False
C08 (antibody, human IgG1, lambda, L234A L235A, V domains shown) VH: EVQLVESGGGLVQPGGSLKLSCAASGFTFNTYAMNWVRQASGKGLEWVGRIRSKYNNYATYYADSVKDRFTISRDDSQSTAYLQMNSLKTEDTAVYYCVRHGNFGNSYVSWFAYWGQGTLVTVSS VL: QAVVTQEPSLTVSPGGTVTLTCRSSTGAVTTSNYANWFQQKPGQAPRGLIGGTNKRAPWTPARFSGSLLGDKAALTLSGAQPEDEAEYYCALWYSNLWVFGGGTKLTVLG	True

stdin: Quick check: does A12 (antibody, human IgG1, lambda, L234A L235A, V domains shown) VH: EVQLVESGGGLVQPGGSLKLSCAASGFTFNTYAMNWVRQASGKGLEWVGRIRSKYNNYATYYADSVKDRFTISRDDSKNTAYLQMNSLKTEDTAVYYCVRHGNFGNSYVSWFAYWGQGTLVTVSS VL: QAVVTQEPSLTVSPGGTVTLTCRSSTGAVTTSNYANWVQQKPGQAPRTLIGGTNKRAPWTPARFSGSLLGDKAALTLSGAQPEDEAEYYCALWYSNLWVFGGGTKLTVLG have Absorbance (450 nm) greater than or equal to 0.2?
stdout: False
